meta.source: PubChem BioAssay AID1159580

assay: chemical genetic growth profiling, strain panel (AID 1159580);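 note: tested at 20 µM; growth read once vehicle control cultures reached saturation at 30 °C; 1 = growth at the plate median or of vehicle wells; lower values mean less growth of the strain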; settings: S. cerevisiae deletion strains, growth OD, locus YNR049C, strain mso1, stronger effect = lower value
Screen size: about 5,500 compounds; about 2,000 (36%) were called active. About 18% were inconclusive and are not listed. The list shows a part of the results.
// NB: equality with 1 counts as no (0); only normalized growth strictly below is yes (1)

COMPOUND: COC1CC(O[C@H]2CC[C@]3(C=O)C4CC[C@]5(C)C(C6=CC(=O)OC6)CC[C@]5(O)C4CC[C@]3(O)C2)OC(C)C1O (some centres undefined)
CATEGORY: yes (1)
--
COMPOUND: CO[C@H]1[C@@H](O)[C@@H](C)O[C@H](O[C@H]2CCC3(C)C4CCC5(C)[C@@H](C6=CC(=O)OC6)CC[C@]5(O)[C@@H]4CC[C@]3(O)C2)[C@@H]1O (some centres undefined)
CATEGORY: no (0)
--
COMPOUND: CO[C@@H]1[C@@H](OC(N)=O)[C@@H](O)[C@H](Oc2ccc3c(O)c(NC(=O)c4ccc(O)c(CC=C(C)C)c4)c(=O)oc3c2C)OC1(C)C
CATEGORY: no (0)

====

assay: chemical genetic growth profiling, strain panel (AID 1159580);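 note: tested at 20 µM; growth read once vehicle control cultures reached saturation at 30 °C; 1 = growth at the plate median or of vehicle wells; lower values mean less growth of the strain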; details: S. cerevisiae deletion strains, growth OD, locus YOR265W, strain rbl2
The whole screen tested about 5,500 compounds, of which about 2,000 (36%) were called active. About 18% were inconclusive and are not listed. Cut-off read from the data, not from the text of the source: active = normalized growth mostly below about 0.91 (no sharp cut-off); inconclusive = no clear call, values can overlap the other calls; inactive = mostly above about 0.92. This is one part of the list.
Classes used: YES = active, NO = inactive

MOLECULE: CC(=O)Oc1ccccc1C(=O)Oc1ccccc1C(=O)O
CATEGORY: NO
--
MOLECULE: O=C(Oc1ccccc1C(=O)O)c1ccccc1O
CATEGORY: NO
--
MOLECULE: Cc1cc(N)c2ccccc2[n+]1CCCCCCCCCC[n+]1c(C)cc(N)c2ccccc21
CATEGORY: YES
--
MOLECULE: CC[C@@]1(O)C(=O)OCc2c1cc1n(c2=O)Cc2cc3cc(O)ccc3nc2-1
CATEGORY: NO
--
MOLECULE: COc1c(O)cc2c(c1O)[C@H]1O[C@H](CO)[C@@H](O)[C@H](O)[C@@H]1OC2=O
CATEGORY: NO
--
MOLECULE: O=C(Oc1cccc2cccnc12)c1ccccc1
CATEGORY: NO
--
MOLECULE: CC1Cc2ccccc2N1NC(=O)c1ccc(Cl)c(S(N)(=O)=O)c1 (stereo not given)
CATEGORY: NO
--
MOLECULE: Oc1ccc2c3c1OC1[C@@H](O)CC[C@@]4(O)[C@@H](C2)N(CC2CCC2)CC[C@]314 (stereo not given in full)
CATEGORY: NO
--
MOLECULE: CC1(C)S[C@@H]2[C@H](NC(=O)[C@@H](N)c3ccc(O)cc3)C(=O)N2[C@H]1C(=O)O
CATEGORY: NO
--
MOLECULE: NC[C@@H]1O[C@H](O[C@@H]2[C@@H](CO)OC(O[C@@H]3[C@@H](O)[C@H](N)C[C@H](N)[C@H]3O[C@H]3O[C@H](CO)[C@@H](O)[C@H](O)[C@H]3N)[C@@H]2O)[C@H](N)[C@@H](O)[C@@H]1O (stereo not given in full)
CATEGORY: NO

====

experiment: chemical genetic growth profiling, strain panel (AID 1159580);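 note: tested at 20 µM; growth read once vehicle control cultures reached saturation at 30 °C; 1 = growth at the plate median or of vehicle wells; lower values mean less growth of the strain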; details: S. cerevisiae deletion strains, growth OD, locus YHR094C, strain hxt1, stronger effect = lower value
Among all 5,500 compounds or so, about 2,000 (36%) were called active. About 18% were inconclusive and are not listed. The list shows a part of the results.
We begin with a simple list: items and their reported normalized growth.
READOUT: normalized growth

MOLECULE: NC[C@H]1O[C@H](OC2[C@@H](N)C[C@@H](N)[C@H](O[C@H]3O[C@H](CO)[C@@H](O)[C@H](N)[C@H]3O)[C@H]2O)[C@H](O)[C@@H](O)[C@@H]1O (some centres undefined)
VALUE_MEASURED: 0.975
//
MOLECULE: Nc1ccc(S(=O)(=O)Nc2ncccn2)cc1
VALUE_MEASURED: 0.994
//
MOLECULE: CO[C@@H]1C[C@H](O[C@H]2CC[C@]3(C)C4CC[C@]5(C)[C@@H](C6=CC(=O)OC6)CC[C@]5(O)[C@@H]4CC[C@]3(O)C2)O[C@H](C)[C@@H]1O (some centres undefined)
VALUE_MEASURED: 1.02
//
MOLECULE: CCC(=O)O[C@]1(C(=O)CCl)[C@@H](C)CC2C3CCC4=CC(=O)C=C[C@]4(C)[C@@]3(F)[C@@H](O)C[C@@]21C (some centres undefined)
VALUE_MEASURED: 0.972
//
MOLECULE: CN(C)C(=O)C(CCN1CCC(O)(c2ccc(Cl)cc2)CC1)(c1ccccc1)c1ccccc1
VALUE_MEASURED: 1.01
//
MOLECULE: CC(C)(C)NCC(O)COc1cccc2c1C[C@H](O)[C@H](O)C2 (some centres undefined)
VALUE_MEASURED: 0.995
//
MOLECULE: NCC(O)CC(=O)O (centres undefined)
VALUE_MEASURED: 0.988
//
MOLECULE: C[C@@H](CO)NC(=O)C1C=C2c3cccc4[nH]cc(c34)C[C@H]2N(C)C1 (some centres undefined)
VALUE_MEASURED: 0.991
//
MOLECULE: CC1=CC(=O)C2C(C)(C)CCC[C@]2(C)[C@@]1(O)CCc1ccoc1 (some centres undefined)
VALUE_MEASURED: 0.973
//
MOLECULE: COc1cc(O)c2c(=O)cc(-c3ccc(OC)c(-c4c(O)cc(O)c5c(=O)cc(-c6ccc(O)cc6)oc45)c3)oc2c1
VALUE_MEASURED: 0.99
//
MOLECULE: O=c1c(O)cccc2c(C3Oc4cc(O)cc(O)c4CC3O)cc(O)c(O)c12 (centres undefined)
VALUE_MEASURED: 0.835
//
MOLECULE: COc1cc(C)c2c(=O)c3c(O)cc(OC)cc3oc2c1
VALUE_MEASURED: 0.991
//
MOLECULE: CCOC(=O)CC(SP(=S)(OC)OC)C(=O)OCC (centres undefined)
VALUE_MEASURED: 1.01
//
MOLECULE: CCCCC(=O)O[C@]1(C(=O)CO)[C@@H](C)CC2C3CCC4=CC(=O)C=C[C@]4(C)[C@@]3(F)C(O)C[C@@]21C (some centres undefined)
VALUE_MEASURED: 0.983
//
MOLECULE: COc1ccc(-c2cc(=O)c3c(O)cc(O)cc3o2)cc1O
VALUE_MEASURED: 1
//
MOLECULE: CSCCC(N)C(=O)NC(CC(C)C)C(=O)NC(Cc1ccccc1)C(=O)O (centres undefined)
VALUE_MEASURED: 0.996
//
MOLECULE: NCCCN
VALUE_MEASURED: 0.979
//
MOLECULE: O=C(Oc1ccccc1C(=O)O)c1ccccc1O
VALUE_MEASURED: 0.977
//
MOLECULE: COC1CC(O[C@H]2CC[C@]3(C=O)C4CC[C@]5(C)C(C6=CC(=O)OC6)CC[C@]5(O)C4CC[C@]3(O)C2)OC(C)C1O (some centres undefined)
VALUE_MEASURED: 0.984

====

experiment: chemical genetic growth profiling, strain panel (AID 1159580);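 note: tested at 20 µM; growth read once vehicle control cultures reached saturation at 30 °C; 1 = growth at the plate median or of vehicle wells; lower values mean less growth of the strain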; conditions: S. cerevisiae deletion strains, growth OD, locus YIL066C, strain RNR3, stronger effect = lower value
The whole screen tested about 5,500 compounds, of which about 2,000 (36%) were called active. Roughly 18% stayed inconclusive and do not appear here. The list shows a part of the results.

MOLECULE: C[N+]1(C)C[C@H](O)[C@H](C(=O)[O-])C1
normalized growth: 1.01
--
MOLECULE: CC1(C)C(=O)CC[C@@]2(C)C1C[C@@H](O)[C@@]1(C)C3=CC(=O)O[C@@H](c4ccoc4)[C@]3(C)CCC21 (stereo partly specified)
normalized growth: 1
--
MOLECULE: C[C@@H]1CC[C@@]23CCC4(C)[C@@](C=CC5[C@@]6(C)CCC(=O)C(C)(C)C6CC[C@]54C)(OC2=O)C3[C@H]1C (stereo partly specified)
normalized growth: 1.03
--
MOLECULE: NC[C@H]1O[C@H](O[C@H]2[C@H](O)[C@@H](O[C@H]3O[C@H](CO)[C@@H](O)[C@H](N)[C@H]3O)[C@H](N)C[C@@H]2N)[C@H](N)[C@@H](O)[C@@H]1O
normalized growth: 0.99
--
MOLECULE: CSc1nc(NC(C)C)nc(NC(C)C)n1
normalized growth: 1.03
--
MOLECULE: COC1=CC(=O)C=C(OC)C1=O
normalized growth: 0.988
--
MOLECULE: CC1(C)S[C@@H]2[C@H](NC(=O)[C@@H](N)c3ccc(O)cc3)C(=O)N2[C@H]1C(=O)O
normalized growth: 1.03
--
MOLECULE: CSCCC(N)C(=O)NC(CC(C)C)C(=O)NC(Cc1ccccc1)C(=O)O (stereo unspecified)
normalized growth: 1.01
--
MOLECULE: COc1nc(NC(C)C)nc(NC(C)C)n1
normalized growth: 1.02
--
MOLECULE: COC(=O)NC(=S)Nc1ccccc1NC(=S)NC(=O)OC
normalized growth: 1.01
--
MOLECULE: CC(C)Nc1nc(Cl)nc(NC(C)C)n1
normalized growth: 1.02
